# TARGET OR TEST SYSTEM: ERBB4 (human) (UniProt Q15303)
# Sequence (Q15303 whole entry, looked up): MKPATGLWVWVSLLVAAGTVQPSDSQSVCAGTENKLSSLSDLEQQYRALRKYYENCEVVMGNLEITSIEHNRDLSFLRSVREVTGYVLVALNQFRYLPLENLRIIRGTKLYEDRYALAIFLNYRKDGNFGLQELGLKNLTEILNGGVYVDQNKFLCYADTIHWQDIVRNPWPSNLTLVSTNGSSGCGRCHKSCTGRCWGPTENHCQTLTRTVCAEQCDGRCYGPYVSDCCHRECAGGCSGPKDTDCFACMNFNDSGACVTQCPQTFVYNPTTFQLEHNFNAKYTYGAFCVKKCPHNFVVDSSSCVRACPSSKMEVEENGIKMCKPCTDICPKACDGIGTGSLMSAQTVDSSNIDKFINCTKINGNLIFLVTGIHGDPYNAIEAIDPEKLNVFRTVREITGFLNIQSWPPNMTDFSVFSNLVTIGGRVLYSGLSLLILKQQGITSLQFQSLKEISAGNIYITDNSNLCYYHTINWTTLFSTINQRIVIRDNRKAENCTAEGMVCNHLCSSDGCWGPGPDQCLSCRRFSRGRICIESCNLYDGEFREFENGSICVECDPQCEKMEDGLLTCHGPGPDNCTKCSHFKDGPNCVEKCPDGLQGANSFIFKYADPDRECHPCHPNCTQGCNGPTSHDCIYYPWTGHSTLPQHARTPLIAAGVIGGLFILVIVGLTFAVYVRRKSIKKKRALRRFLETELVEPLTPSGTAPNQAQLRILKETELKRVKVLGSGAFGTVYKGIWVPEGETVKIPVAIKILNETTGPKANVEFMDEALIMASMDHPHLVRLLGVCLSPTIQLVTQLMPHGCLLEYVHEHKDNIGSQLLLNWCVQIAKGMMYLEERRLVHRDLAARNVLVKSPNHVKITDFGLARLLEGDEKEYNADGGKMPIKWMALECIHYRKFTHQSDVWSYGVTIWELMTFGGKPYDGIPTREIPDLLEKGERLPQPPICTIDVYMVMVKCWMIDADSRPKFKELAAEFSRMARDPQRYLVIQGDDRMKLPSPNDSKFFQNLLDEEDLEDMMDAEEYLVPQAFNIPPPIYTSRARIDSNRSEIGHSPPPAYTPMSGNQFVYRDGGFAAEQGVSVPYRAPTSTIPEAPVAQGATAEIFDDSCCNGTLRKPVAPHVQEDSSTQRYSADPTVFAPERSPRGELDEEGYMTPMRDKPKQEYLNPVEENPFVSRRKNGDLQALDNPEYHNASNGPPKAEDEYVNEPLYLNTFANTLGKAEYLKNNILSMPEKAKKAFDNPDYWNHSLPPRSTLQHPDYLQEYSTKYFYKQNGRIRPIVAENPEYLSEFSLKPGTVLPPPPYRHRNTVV
# PROTOCOL SUMMARY: radiometric filter-binding kinase assay
# ASSAY SETUP: compound 10.0 µM
QUANTITY NAME: residual activity (%)

Before answering, review these 3 worked examples.
NC(=O)c1ccc(-c2ccc(Oc3cncc4sc(-c5nn[nH]n5)cc34)cc2)cc1; 73
CN1C(=O)[C@@H](Cc2c[nH]c3ccccc23)NC1=S; 104
O=C(N[C@@H](COc1ccc2[nH]c(=O)[nH]c2c1)c1ccccc1)c1cccn(Cc2ccc(F)c(F)c2)c1=O; 98

1. CNc1nc(-c2ccc3c(N)n[nH]c3c2)cc(N2C[C@@H](C(=O)NC3CCCCC3)CC[C@H]2C)n1
2. Cc1ccc(Sc2cnc(Nc3cccc(Br)n3)s2)cc1C(=O)N1CCN(C(=O)CN)CC1
Query: For the pair 1 and 2 , which member has the lower residual activity number? Please respond with the label that marks your chosen entry.
Result: 2
(2: 51%, 1: 101%)
